# EXPERIMENTAL SYSTEM: Indoleamine 2,3-dioxygenase 1 (Homo sapiens, UniProt P14902)
# Sequence (P14902 whole entry): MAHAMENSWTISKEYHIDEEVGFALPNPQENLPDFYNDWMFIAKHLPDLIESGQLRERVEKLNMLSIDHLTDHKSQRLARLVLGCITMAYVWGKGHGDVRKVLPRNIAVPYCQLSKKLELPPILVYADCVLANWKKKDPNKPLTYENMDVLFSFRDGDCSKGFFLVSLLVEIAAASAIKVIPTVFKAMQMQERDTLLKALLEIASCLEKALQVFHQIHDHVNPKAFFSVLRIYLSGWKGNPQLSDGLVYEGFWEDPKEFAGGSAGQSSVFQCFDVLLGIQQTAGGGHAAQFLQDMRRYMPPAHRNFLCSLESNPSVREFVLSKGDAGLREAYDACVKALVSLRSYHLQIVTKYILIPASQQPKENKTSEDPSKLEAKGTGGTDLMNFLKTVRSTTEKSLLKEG
# ASSAY SUMMARY: Inhibition of IDO1 in IFN-gamma stimulated human HeLa cells in presence of heme measured after 20 hrs by heme-competitive binding assay
# Format: cell-based
EXPERIMENTAL ENDPOINT: IC50

Suppose we examine the molecule C[C@@H](C(=O)Nc1ccc(C#N)cc1)[C@H]1CC[C@@H](c2ccnc3ccc(F)cc32)CC1 ; what IC50 value has been reported?
< 0.1 µM

====

# ASSAY SUMMARY: Oral bioavailability in ICR mouse 30 mg/kg measured after 0.0833 to 24 hrs by liquid chromatography/tandem mass spectrometric analysis
# Format: ADME, organism-based
# EXPERIMENTAL PARAMETERS: in vivo, time 0.0833-24 hrs
EXPERIMENTAL ENDPOINT: bioavailability
Include the unit right after the number.

Suppose we examine the compound O=S(=O)(NCCCOc1ccccc1-c1c[nH]cn1)C(F)(F)F ; what bioavailability value has been reported?
96%
